- RUN_DESCRIPTION: Cmax in rhesus monkey at 0.4 mg/kg, po
- Assay type: ADME, organism-based, Macaca mulatta
- Parameters: dose 0.4 mg/kg, route oral
- CONDITION_DETAILS: in vivo
PARAMETER_MEASURED: Cmax (nM)

1. Cc1cc(C(=O)N[C@@H]2CC(C)(C)Oc3nc(-c4ccc(Cl)cc4Cl)c(-c4ccc(Cl)cc4)cc32)n[nH]1	90

====

- RUN_DESCRIPTION: Metabolic stability in bile-duct cannulated rat bile assessed as compound remaining at 2 mg/kg, po up to 72 hrs
- Type: ADME, organism-based
- Parameters: dose 2 mg/kg, route oral
- CONDITION_DETAILS: read-out: Stability
PARAMETER_MEASURED: remaining at 72 h

1. Cc1cc(C(=O)N[C@@H]2CC(C)(C)Oc3nc(-c4ccc(Cl)cc4Cl)c(-c4ccc(Cl)cc4)cc32)n[nH]1	30%

====

- RUN_DESCRIPTION: Plasma clearance in rhesus monkey at 0.4 mg/kg, po
- Type: ADME, organism-based, Macaca mulatta
- Design: dose 0.4 mg/kg, route oral
PARAMETER_MEASURED: CL/F (mL/min/kg)

1) Cc1cc(C(=O)N[C@@H]2CC(C)(C)Oc3nc(-c4ccc(Cl)cc4Cl)c(-c4ccc(Cl)cc4)cc32)n[nH]1	2.3

====

- RUN_DESCRIPTION: Plasma clearance in Sprague-Dawley rat at 1 mg/kg, iv and 2 mg/kg, po
- Type: ADME, organism-based
PARAMETER_MEASURED: clearance (mL/min/kg)

1) Cc1cc(C(=O)N[C@@H]2CC(C)(C)Oc3nc(-c4ccc(Cl)cc4Cl)c(-c4ccc(Cl)cc4)cc32)n[nH]1	4.5

====

- RUN_DESCRIPTION: Plasma concentration in dog at 10 mg/kg, iv administered for 30 mins
- Type: ADME, organism-based, Canis lupus familiaris
- Design: dose 10 mg/kg, route intravenous
PARAMETER_MEASURED: concentration at 0.5 h (µM)

1. Cc1cc(C(=O)N[C@@H]2CC(C)(C)Oc3nc(-c4ccc(Cl)cc4Cl)c(-c4ccc(Cl)cc4)cc32)n[nH]1	6.96

====

- RUN_DESCRIPTION: Drug level in wild type MDR1a-expressing mouse brain at 1 mg/kg, iv measured after 4 hrs
- Format: ADME, organism-based
- Design: dose 1 mg/kg, route intravenous
- CONDITION_DETAILS: read-out: Drug uptake
PARAMETER_MEASURED: concentration at 4 h (nM)

1. Cc1cc(C(=O)N[C@@H]2CC(C)(C)Oc3nc(-c4ccc(Cl)cc4Cl)c(-c4ccc(Cl)cc4)cc32)n[nH]1	270

====

- RUN_DESCRIPTION: Bioavailability in Beagle dog at 0.2 mg/kg, iv
- Assay type: ADME, organism-based, Canis lupus familiaris
- CONDITION_DETAILS: in vivo
PARAMETER_MEASURED: bioavailability (%)

1. Cc1cc(C(=O)N[C@@H]2CC(C)(C)Oc3nc(-c4ccc(Cl)cc4Cl)c(-c4ccc(Cl)cc4)cc32)n[nH]1	65

====

- RUN_DESCRIPTION: Drug level in diet-induced obese rat plasma at 0.3 mg/kg, po measured after 18 hrs of last dose on day 13
- Assay type: ADME, organism-based
- Design: dose 0.3 mg/kg, route oral
- CONDITION_DETAILS: read-out: Drug uptake
PARAMETER_MEASURED: concentration at 18 h (nM)

1) Cc1cc(C(=O)N[C@@H]2CC(C)(C)Oc3nc(-c4ccc(Cl)cc4Cl)c(-c4ccc(Cl)cc4)cc32)n[nH]1	180
